# Test system: Escherichia coli TOP10
# assayText: shrunken log2 fold change of peptide-encoding DNA abundance (4.5 h post-induction vs induction); higher = less antimicrobial activity (less host growth inhibition)
# measurementParameters: time post-induction: 4.5 h; library: site-saturation at positions 5, 18, 19, 20
valueKind: shrunken log2 fold change
# respond with the number and nothing more

For orientation, consider the following solved cases.
What does the data say about its shrunken log2 fold change? Entry: RRIRGRPPRLPRPRPRPPHDPRP 1.27

What does the data say about its shrunken log2 fold change? Entry: RRIRIRPPRLPRPRPRPWNKPRP -0.0719

What does the data say about its shrunken log2 fold change? Entry: RRIRTRPPRLPRPRPRPFRWPRP 0.24

---
What does the data say about its shrunken log2 fold change? Entry: RRIRERPPRLPRPRPRPFDFPRP -0.146

What does the data say about its shrunken log2 fold change? Entry: RRIRPRPPRLPRPRPRPYYGPRP -0.271

What does the data say about its shrunken log2 fold change? Entry: RRIRGRPPRLPRPRPRPRRDPRP 0.424

What does the data say about its shrunken log2 fold change? Entry: RRIRLRPPRLPRPRPRPDTWPRP 0.0224

What does the data say about its shrunken log2 fold change? Entry: RRIRRRPPRLPRPRPRPFGLPRP -0.0905

What does the data say about its shrunken log2 fold change? Entry: RRIRIRPPRLPRPRPRPQYQPRP -0.769

What does the data say about its shrunken log2 fold change? Entry: RRIRARPPRLPRPRPRPRPTPRP 0.867

What does the data say about its shrunken log2 fold change? Entry: RRIRDRPPRLPRPRPRPWHMPRP -0.301

* * *

# Tested on: Escherichia coli TOP10;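 note: peptides expressed intracellularly from a pBAD plasmid library in pooled LB shake-flask culture, induced with 0.3% L-arabinose, DNA abundance read by NGS, three biological replicates, DESeq2 with apeglm shrinkage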
# assayText: shrunken log2 fold change of peptide-encoding DNA abundance (4.5 h post-induction vs induction); higher = less antimicrobial activity (less host growth inhibition)
# measurementParameters: time post-induction: 4.5 h; library: site-saturation at positions 5, 18, 19, 20
valueKind: shrunken log2 fold change
# respond with the number and nothing more

What does the data say about its shrunken log2 fold change? Entry: RRIRWRPPRLPRPRPRPRSVPRP 0.247

---
What does the data say about its shrunken log2 fold change? Entry: RRIRERPPRLPRPRPRPKMTPRP -0.0406

What does the data say about its shrunken log2 fold change? Entry: RRIRRRPPRLPRPRPRPDFQPRP -0.135

What does the data say about its shrunken log2 fold change? Entry: RRIRYRPPRLPRPRPRPRMGPRP -0.0782

What does the data say about its shrunken log2 fold change? Entry: RRIRERPPRLPRPRPRPEFDPRP 0.039

What does the data say about its shrunken log2 fold change? Entry: RRIRGRPPRLPRPRPRPFRFPRP 0.485

What does the data say about its shrunken log2 fold change? Entry: RRIRYRPPRLPRPRPRPSQFPRP -0.257

What does the data say about its shrunken log2 fold change? Entry: RRIRIRPPRLPRPRPRPFNAPRP -0.551

What does the data say about its shrunken log2 fold change? Entry: RRIRARPPRLPRPRPRPQHHPRP -0.298

What does the data say about its shrunken log2 fold change? Entry: RRIRRRPPRLPRPRPRPDEGPRP -0.00319

What does the data say about its shrunken log2 fold change? Entry: RRIRYRPPRLPRPRPRPRKFPRP -1.72

What does the data say about its shrunken log2 fold change? Entry: RRIRERPPRLPRPRPRPHQSPRP -0.0234

What does the data say about its shrunken log2 fold change? Entry: RRIRLRPPRLPRPRPRPDANPRP 0.0586

What does the data say about its shrunken log2 fold change? Entry: RRIRDRPPRLPRPRPRPNIQPRP -0.0288

What does the data say about its shrunken log2 fold change? Entry: RRIRARPPRLPRPRPRPWHQPRP 0.0524

What does the data say about its shrunken log2 fold change? Entry: RRIRDRPPRLPRPRPRPNYIPRP -1.03

What does the data say about its shrunken log2 fold change? Entry: RRIRIRPPRLPRPRPRPHSNPRP -0.502

What does the data say about its shrunken log2 fold change? Entry: RRIRCRPPRLPRPRPRPHSHPRP -0.307
